System: P-gp
Assay comment: Selectivity index, ratio of IC50 for cytotoxicity against mouse L929 cells to EC50 for inhibition of P-gp in human MDA435/LCC6MDR cells assessed as reduction of doxorubicin cytotoxic IC50 by half
Assay type: toxicity, cell-based
Condition info: probe doxorubicin, read-out: Ratio IC50/EC50
Test readout: selectivity ratio

Reported selectivity ratio for COc1ccc(C2=C(c3ccc(OC)c(OC)c3)C(=O)N(CC(=O)c3ccc(OCc4cc(OC)c(OC)c(OC)c4Br)c(OC)c3)C2=O)cc1OC : what is it?
> 833
